The origin of these recorded values is the SangsterLogP compilation.

assay_readout: logP
A bare number is all that is needed in reply.

Name the recorded logP for `Brc1ccccc1-c1nnn[nH]1` . 1.81

Value lookup for logP; key = `c1ccc(-c2nnn[nH]2)cc1` 1.5

----------
Please respond with reported logP for every item in the list.
Returns: the value as a bare number; no unit string appended.

Field request: logP | item: `ClC=C(Cl)Cl` 2.67

Given CC(Cl)CCl (stereo not drawn) , state its recorded logP. 1.98

Dear colleague, I am looking for the recorded logP of the following molecule: `ClCCCl` 1.55

----------
experiment_summary: method code …, from Kristl, A.; Vesnaver, G.; Mrhar, A.; Kozjek, F. (1993). Evaluation of partitioning and solubility data for some guanine derivatives in terms of mutual miscibility of octanol and water phase. …
measurement_parameters: pH 5.2
assay_readout: logD

Can you look up the measured logD of `CC(=O)Nc1nc2c(ncn2COCCO)c(=O)[nH]1` for me? -1.3

----------
experiment_summary: method code SF-GLC, from DOI: 10.1021/ac00241a023
assay_readout: logP
Kindly provide the number alone.

Form field: reported logP of `Clc1cccc(Cl)c1Cl` 4.05

----------
experiment_summary: method code SF-GLC, from DOI: 10.1016/s0021-9673(01)83612-8
measurement_parameters: pH 13.0
Exercise: for every item that follows, state its recorded logD.

// returns reported logD for input CN[C@H](C)[C@@H](OC)c1ccccc1 (relative stereo) 1.87

Look at this compound and give its reported logD. `CNCCCCc1ccccc1` 2.76

What logD value was documented for this compound, CC(N)CC1CCCCCCC1 (centres undefined) ? 3.7

Which logD value is on record for NC1CCc2ccccc2C1 (centres undefined) ? 2.08

----------
Outcome: 1 (yes) for logP of at least 2; 0 (no) for anything lower.

Test whether the compound `Nc1cccnc1` records logP of 2 or higher. 0 (no)

Given `Brc1cccnc1` , state whether its logP is at least 2. 0 (no)

Could you tell me if the measured logP of `Brc1ccncc1` reaches 2 or more? 0 (no)

In plain terms: is recorded logP at least 2 for `O=Cc1cccnc1` ? 0 (no)

Does the compound `CC(C)(C)c1ccncc1` have recorded logP that is 2 or more? 1 (yes)

----------
Would you kindly list logP for each of these compounds?

Tell me the measured logP of `CC(C)NC(=O)c1cccnc1` , please. 0.59

# logP lookup, item `O=C(NCCO)c1cccnc1` -0.11

----------
experiment_summary: method code SF-HPLC, from DOI: 10.1016/0378-5173(93)90356-k
measurement_parameters: pH 7.4
assay_readout: logD
Please respond with just the number, no unit label.

Fill in: logD of `O=c1[nH]cc(F)c(=O)[nH]1` is ___ -0.7

----------
measurement_parameters: pH 9.2
assay_readout: logD
The response must contain the number and no unit.

If you can, please state the reported logD value of `CC(C)CNCNC(=O)c1ccccc1` . 1.73

----------
What logP was measured for each of the following?

What does the data say about its logP? Entry: `COc1cc(Cl)c(Cl)c(Cl)c1` 4.1

Fill in: logP of `CCOc1cc(Cl)c(Cl)c(Cl)c1` is ___ 4.61

----------
experiment_summary: method code SF-RC, from DOI: 10.1016/j.nucmedbio.2007.03.011, PMID: 17591556
measurement_parameters: pH 8.9
assay_readout: logD

Entry under review: `CN(C(=O)CF)c1cccc(-c2ccnc3c(C(=O)c4cccs4)cnn23)c1` . Reported logD? 1.4

----------
experiment_summary: method code SF-GLC, from Boikov, Yu.; Shibaev, V.; Gaidamaka, V.; V'yunov, K. (1989). Study of correlation between extraction characteristics of glycidyl ethers and theri structure. 62(1)177-179.
assay_readout: logP
Reply with just the number.

So what does the record say about logP for CCOCC1CO1 (stereo unspecified) ? 0.27

----------
experiment_summary: method code SF-HPLC, from DOI: 10.1016/0378-5173(85)90221-2
measurement_parameters: pH 1.5
assay_readout: logD

Entry `CCCc1c2c(c(O)c3c(=O)cc(C(=O)O)oc13)CCCC2` : reported logD = ? 4.4

----------
Provide the reported logP of each item.
Enter a number only.

Which logP is reported for this compound? `O=C(O)Cc1cc(Cl)c(Cl)cc1Cl` 3.6

Requested read-out: logP. Entry: `O=C(O)Cc1ccc(F)cc1` 1.6

Report logP for `O=C(O)Cc1ccc(Oc2cccc(Br)c2)cc1` please. 4.1

----------
experiment_summary: method code SF-HPLC, from DOI: 10.1021/jm00109a018, PMID: 2033591
measurement_parameters: pH 7.0
assay_readout: logD
Lab note: record the figure alone, no unit after it.

Reported logD for `Cc1nc2c(N)ncnc2n1[C@@H]1O[C@H](CO)C[C@@H]1F` : what is it? 0.1

----------
experiment_summary: method code SF-AS, from DOI: 10.1248/cpb.35.377
assay_readout: logP
Give the figure only, with no unit attached.

Looking for the measured logP of `Nc1ccccc1C(=O)O` , can you help? 1.13

Request the reported logP associated with `OCc1ccccc1Cl` 1.77

What value of logP has been reported for the following compound? `OCc1c(Cl)cccc1Cl` 2.02

----------
Answer each item with its documented logP.
experiment_summary: method code SF-AS, from DOI: 10.1021/jm00162a004, PMID: 3023612
Form rule: numeric answer, no unit written next to it.

Any idea what its logP is? The compound is CCCCC1(C)CCC=[N+]1[O-] (configuration not stated) 0.04

Field request: logP | item: `[O-][N+]1=CCCC12CCCC2` -0.1

----------
Kindly state logD for each of the entries shown.
experiment_summary: method code SF-HPLC, from DOI: 10.1248/cpb.37.2861, PMID: 2611948
measurement_parameters: pH 4.0

Given the compound `COc1ccc(Cn2cc(F)c(=O)[nH]c2=O)cc1` , what is its reported logD? 1.04

What logD value was documented for this compound, `Cc1ccc(Cn2cc(F)c(=O)[nH]c2=O)cc1` ? 1.5

----------
experiment_summary: method code SF-RC, from DOI: 10.1111/j.1399-3054.1990.tb08712.x
assay_readout: logP
Number only, no unit.

Suppose we examine the molecule `O=C(O)Cc1cccc2ccccc12` ; what logP value has been reported? 2.24

----------
assay_readout: logP

Which logP is listed for COc1ccc(C2=CC(c3ccc(S(C)(=O)=O)cc3)C=NC2=O)cn1 (stereo unspecified) ? 1.7

----------
experiment_summary: method code SF-HPLC, from DOI: 10.1016/0378-5173(88)90220-7
measurement_parameters: pH 7.4
assay_readout: logD
Returns: the value as a bare number; no unit string appended.

Tell me the measured logD of `Cc1ccc(S(=O)(=O)N(C)C(=O)c2ccccc2)cc1` , please. 2.95

Give its logD value. Item: `CNS(=O)(=O)c1ccc(C)cc1` 1.28

----------
For each of the compounds below, state its logD.
experiment_summary: method code SF-AS, from DOI: 10.1039/p29900001191
measurement_parameters: pH 12.0
Reply with the value as a number alone.

I'd like to know its logD. The compound in question is `c1ccc(Cc2cc(-c3ccccc3)nnc2NCCN2CCOCC2)cc1` 3.65

Look at this compound and give its reported logD. `N#Cc1cc(-c2ccccc2)nnc1NCCN1CCOCC1` 1.89

----------
experiment_summary: method code SF-AS, from DOI: 10.1016/0223-5234(94)90063-9
measurement_parameters: pH 2.0
assay_readout: logD
Provide a numeric answer; units are not to be included.

Could you tell me which logD is on file for `Cn1c(CC(=O)O)cnc1C(=O)c1ccccc1` ? 0.22

----------
experiment_summary: from Bazaco, J.; Coca, C. (1989). Relation between the partition coefficient (Log Pow) and capacity factor (Log k') derived from reversed-phase HPLC of a series of benzaldehyde derivatives. Ciencia e …
assay_readout: logP
Enter a number only.

So what's the measured logP for this one? `O=Cc1ccc(F)cc1` 1.54

Value lookup for logP; key = `CCOc1cc(C=O)ccc1O` 1.58

What value of measured logP is listed for `COc1ccccc1C=O` ? 1.72

----------
Assign logD to each entry below.
experiment_summary: method code SF-HPLC, from DOI: 10.1016/j.bmc.2011.11.059, PMID: 22189276
measurement_parameters: pH 7.4
Format: numeric value only, no unit, no commentary.

// query logD value for entry CCOC(=O)COC(=O)NCCCC(C)Nc1cc(OC)cc2cccn12 (configuration not stated) 3.09

I am curious: what logD value has been reported for CCCCCCOC(=O)NCCCC(C)Nc1cc(OC)cc2cccnc12 (configuration not stated) ? 3.02

----------
Field: logP. Provide a value for each of the compounds that follow.
No unit in the answer, only the number.

Query: logP; subject: `CCCCCCCCOC(=O)COc1ccc(Cl)cc1Cl` 5.86

Given `ClC(Cl)=C(c1ccc(Cl)cc1)c1ccc(Cl)cc1` , state its recorded logP. 5.89

Data request, read-out logP, for `FC(F)(Cl)C(F)(Cl)Cl` 3.16

Report logP for C1CCCCCC2OC2CCCC1 (stereo not given) please. 4.7

Returns the measured logP for the input compound. Input: `ClC1=C(Cl)C(Cl)(Cl)C(Cl)=C1Cl` 5.04
